# Test system: HCC-366
# PROCEDURE SUMMARY: relative viability (nuclei count vs DMSO), 5 days (fraction); higher = more cells survive
# RUN PARAMETERS: first compound 4 µM
Criterion: relative viability strictly less than 0.2. Met: condition met. Not met: condition not met.

COMPOUND: Cc1sc2c(c1C)C(c1ccc(Cl)cc1)=N[C@@H](CC(=O)OC(C)(C)C)c1nnc(C)n1-2 [JQ1] + Cc1nc(Nc2ncc(C(=O)Nc3c(C)cccc3Cl)s2)cc(N2CCN(CCO)CC2)n1 [Dasatinib] (partner 0.075 µM)
LABEL: condition not met

COMPOUND: Cc1sc2c(c1C)C(c1ccc(Cl)cc1)=N[C@@H](CC(=O)OC(C)(C)C)c1nnc(C)n1-2 [JQ1] + C[C@]1(O)C[C@@H](c2nc(-c3ccc4ccc(-c5ccccc5)nc4c3)c3c(N)nccn32)C1 [Linsitinib] (partner 1 µM)
LABEL: condition met

COMPOUND: Cc1sc2c(c1C)C(c1ccc(Cl)cc1)=N[C@@H](CC(=O)OC(C)(C)C)c1nnc(C)n1-2 [JQ1] + CC(=O)c1c(C)c2cnc(Nc3ccc(N4CCNCC4)cn3)nc2n(C2CCCC2)c1=O [Palbociclib] (partner 0.5 µM)
LABEL: condition met

COMPOUND: Cc1sc2c(c1C)C(c1ccc(Cl)cc1)=N[C@@H](CC(=O)OC(C)(C)C)c1nnc(C)n1-2 [JQ1] + C[C@@H](Oc1cc(-c2cnn(C3CCNCC3)c2)cnc1N)c1c(Cl)ccc(F)c1Cl [Crizotinib] (partner 1 µM)
LABEL: condition met

COMPOUND: Cc1sc2c(c1C)C(c1ccc(Cl)cc1)=N[C@@H](CC(=O)OC(C)(C)C)c1nnc(C)n1-2 [JQ1] + Cc1cc(Nc2cc(N3CCN(C)CC3)nc(Sc3ccc(NC(=O)C4CC4)cc3)n2)n[nH]1 [Tozasertib] (partner 0.1 µM)
LABEL: condition met

COMPOUND: Cc1sc2c(c1C)C(c1ccc(Cl)cc1)=N[C@@H](CC(=O)OC(C)(C)C)c1nnc(C)n1-2 [JQ1] + NC(=O)Nc1cc(-c2cccc(F)c2)sc1C(=O)N[C@H]1CCCNC1 [AZD7762] (partner 0.2 µM)
LABEL: condition met

COMPOUND: Cc1sc2c(c1C)C(c1ccc(Cl)cc1)=N[C@@H](CC(=O)OC(C)(C)C)c1nnc(C)n1-2 [JQ1] + Cc1nc(NC(=O)N2CCC[C@H]2C(N)=O)sc1-c1ccnc(C(C)(C)C(F)(F)F)c1 [Alpelisib] (partner 2 µM)
LABEL: condition not met

COMPOUND: Cc1sc2c(c1C)C(c1ccc(Cl)cc1)=N[C@@H](CC(=O)OC(C)(C)C)c1nnc(C)n1-2 [JQ1] + CC(=O)Nc1cccc(-n2c(=O)n(C3CC3)c(=O)c3c(Nc4ccc(I)cc4F)n(C)c(=O)c(C)c32)c1 [Trametinib] (partner 0.02 µM)
LABEL: condition not met

Cited source: the supplement of paper PMC10307832
